Origin of values: paper PMC10675077

Test system: Yeast (S. cerevisiae strains)
Assay: MIC, yeast (strain not specified)
Assay type: cell-based, Saccharomyces cerevisiae
Details: Saccharomyces cerevisiae; yeast strain not specified (Tables 5 and 10); read-out: MIC Yeast
Could you please mark True for values of MIC below 100 µg/mL and False for values at or above it?

Would you please look over these solved cases?
c1cc2nc(c1)CNCCN(CCNCc1ccc3c(c1)OCO3)CCNC2; True
c1cc2c(cc1CNCCCCNCCCNCc1ccc3c(c1)OCO3)OCO2; False
Oc1ccccc1CNCCN1CCNCc2cccc(n2)CNCC1; True

Continue with the next molecule.
Task item: Item c1cc2c(cc1CNCCN(CCNCc1ccc3c(c1)OCO3)CCNCc1ccc3c(c1)OCO3)OCO2 : MIC beneath 100 µg/mL, strictly?
Reply: False

---

Assay: Cytotoxicity, flow cytometry viability assay with propidium iodide
Format: cell-based, human
Settings: human, Jurkat cells (human lymphocytic leukaemia, ATCC TIB-152), 24 h treatment, average of three experiments, read-out: IC50, cytotoxicity on the human Jurkat cell line
Method: The cytotoxicity of the compounds was assessed via flow cytometry with a viability assay using propidium iodide (PI), a DNA-binding fluorescent probe not permeant to live cells, which is commonly used to detect dead cells in a population. […] Cell viability was determined via flow cytometry using a Gallios flow cytometer (Beckman Coulter). PI fluorescence was excited with an argon-ion laser at 488 nm and collected through a 620/630 nm band-pass emission. […]
So I've got a bunch of molecules here, and I need their IC50 at 24 h values.

Below: 3 molecules and their reported IC50 at 24 h.
c1cc2c(cc1CNCCN(CCNCc1ccc3c(c1)OCO3)CCNCc1ccc3c(c1)OCO3)OCO2 [Compound 3a]; 1.86 µg/mL
Oc1ccc(CNCCN2CCNCc3cccc(n3)CNCC2)cc1 [Compound 7a]; 951 µg/mL
c1cc2nc(c1)CNCCN(CCNCc1ccc3c(c1)CCO3)CCNC2 [Compound 8a]; 128 µg/mL

// for each molecule below, give its IC50 at 24 h
1. c1cc2c(cc1CNCCCCNCCCNCc1ccc3c(c1)OCO3)OCO2 [Compound 1a]
2. Oc1ccccc1CNCCN1CCNCc2cccc(n2)CNCC1 [Compound 6a]
3. c1cc2nc(c1)CNCCN(CCNCc1ccc3c(c1)OCO3)CCNC2 [Compound 5a]
4. c1cc2c(cc1CNCCCNCCCCNCCCNCc1ccc3c(c1)OCO3)OCO2 [Compound 2a]

Reply:
1: 11.4 µg/mL; 2: 98 µg/mL; 3: 37.8 µg/mL; 4: 8.8 µg/mL

Task item: Using the record for NCCN1CCNCc2cccc(n2)CNCC1 [Compound 5b] , report its IC50 at 24 h.
Reply: 1250 µg/mL

---

Assay: Potentiometric titrations in water (protonation constants)
Format: physicochemical
Conditions: 298 K, 0.15 mol/dm^3 NaCl; error in last figure in parentheses
quantityMeasured: Stepwise protonation constant (log K), LH + H ⇄ H2L

// solved cases for Stepwise protonation constant (log K), LH + H ⇄ H2L follow
c1cc2nc(c1)CNCCN(CCNCc1ccc3c(c1)OCO3)CCNC2; 8.78 (1)
c1cc2c(cc1CNCCCCNCCCNCc1ccc3c(c1)OCO3)OCO2; 8.964 (2)
c1cc2nc(c1)CNCCN(CCNCc1ccc3c(c1)CCO3)CCNC2; 8.736 (3)
c1cc2c(cc1CNCCN(CCNCc1ccc3c(c1)OCO3)CCNCc1ccc3c(c1)OCO3)OCO2; 8.35 (3)

Task item: Requested field: Stepwise protonation constant (log K), LH + H ⇄ H2L. Item: c1cc2c(cc1CNCCCNCCCCNCCCNCc1ccc3c(c1)OCO3)OCO2
Reply: 9.481 (8)

---

Test system: Saccharomyces cerevisiae BY4741/YEplac195
Experiment: microbe, parasite or virus in culture
Format: cell-based
Conditions: Saccharomyces cerevisiae; 24 h, 30 °C; average of at least three experiments; read-out: MIC, Yeast, BY4741/ YEplac195
Provide the recorded MIC for the entries that follow.
One number for each entry, in µg/mL.

Oc1ccccc1CNCCN1CCNCc2cccc(n2)CNCC1; 45
C[C@@H]1[C@H](O)[C@@H](C)/C=C/C=C/C=C/C=C/C=C/C=C/C=C/[C@H](O[C@@H]2O[C@H](C)[C@@H](O)[C@H](N)[C@@H]2O)C[C@@H]2O[C@](O)(C[C@@H](O)C[C@@H](O)[C@H](O)CC[C@@H](O)C[C@@H](O)CC(=O)O[C@H]1C)C[C@H](O)[C@H]2C(=O)O [Amphotericin B, reference compound]; 1
c1cc2c(cc1CNCCCNCCCCNCCCNCc1ccc3c(c1)OCO3)OCO2; 250

Hi there! I need MIC for each item below, if you can.
1. NCCN1CCNCc2cccc(n2)CNCC1
2. c1cc2nc(c1)CNCCN(CCNCc1ccc3c(c1)CCO3)CCNC2

Reply:
1: 110; 2: 400

---

Give Stepwise protonation constant (log K), L + H ⇄ HL for every item shown.
Assay: Potentiometric titrations in water (protonation constants)
Type: physicochemical
Conditions: 298 K, 0.15 mol/dm^3 NaCl; error in last figure in parentheses

Solved entries (count: 4):
c1cc2c(cc1CNCCN(CCNCc1ccc3c(c1)OCO3)CCNCc1ccc3c(c1)OCO3)OCO2; 9.12 (2)
c1cc2nc(c1)CNCCN(CCNCc1ccc3c(c1)OCO3)CCNC2; 10.48 (1)
c1cc2c(cc1CNCCCCNCCCNCc1ccc3c(c1)OCO3)OCO2; 10.433 (2)
c1cc2nc(c1)CNCCN(CCNCc1ccc3c(c1)CCO3)CCNC2; 9.943 (3)

Lab note: next molecule to report on.
Task item: Given the molecule c1cc2c(cc1CNCCCNCCCCNCCCNCc1ccc3c(c1)OCO3)OCO2 , what is its reported Stepwise protonation constant (log K), L + H ⇄ HL?
Reply: 10.81 (3)

---

Tested on: Saccharomyces cerevisiae BY4741/YEplac195
Test: microbe, parasite or virus in culture
Format: cell-based
Settings: Saccharomyces cerevisiae; 24 h, 30 °C; average of at least three experiments; read-out: MIC, Yeast, BY4741/ YEplac195
quantityMeasured: MIC (µg/mL)
Answers are plain numbers, in µg/mL.

Examples from the recorded data:
Oc1ccc(CNCCN2CCNCc3cccc(n3)CNCC2)cc1; 295
OC(Cn1cncn1)(Cn1cncn1)c1ccc(F)cc1F [Fluconazole, reference compound]; 10

Please turn your attention to the following entry.
Task item: Could you share which MIC value was measured for c1cc2nc(c1)CNCCN(CCNCc1ccc3c(c1)OCO3)CCNC2 ?
Reply: 60

---

Please go through the items and note down their log β (cumulative protonation constant).
Assay: Potentiometric titrations in water (protonation constants)
Format: physicochemical
Conditions: calculated as log β = ∑j log KHjL; 298 K, 0.15 mol/dm^3 NaCl

Here are 4 compounds together with their reported answers.
c1cc2nc(c1)CNCCN(CCNCc1ccc3c(c1)CCO3)CCNC2 [Compound 8a]; 26.17
c1cc2c(cc1CNCCCCNCCCNCc1ccc3c(c1)OCO3)OCO2 [Compound 1a]; 27.09
c1cc2nc(c1)CNCCN(CCNCc1ccc3c(c1)OCO3)CCNC2 [Compound 5a]; 26.56
c1cc2c(cc1CNCCCNCCCCNCCCNCc1ccc3c(c1)OCO3)OCO2 [Compound 2a]; 35.94

Task item: Quick one: log β (cumulative protonation constant) of Oc1ccc(CNCCN2CCNCc3cccc(n3)CNCC2)cc1 [Compound 7a] ?
Reply: 35.48

---

Assignment: determine reported Stepwise protonation constant (log K), H2L + H ⇄ H3L for the given molecules.
Assay: Potentiometric titrations in water (protonation constants)
Format: physicochemical
Settings: 298 K, 0.15 mol/dm^3 NaCl; error in last figure in parentheses

The examples below pair each entry with its known result.
c1cc2c(cc1CNCCCNCCCCNCCCNCc1ccc3c(c1)OCO3)OCO2; 8.245 (7)
c1cc2c(cc1CNCCCCNCCCNCc1ccc3c(c1)OCO3)OCO2; 7.699 (2)
c1cc2c(cc1CNCCN(CCNCc1ccc3c(c1)OCO3)CCNCc1ccc3c(c1)OCO3)OCO2; 6.93 (3)
c1cc2nc(c1)CNCCN(CCNCc1ccc3c(c1)CCO3)CCNC2; 7.296 (4)

Proceed to the following item.
Task item: Stepwise protonation constant (log K), H2L + H ⇄ H3L for c1cc2nc(c1)CNCCN(CCNCc1ccc3c(c1)OCO3)CCNC2 ?
Reply: 7.30 (1)

---

Can you tell me n, average number of positive charges at pH 7.4 for the items I'm about to list?
Assay: Potentiometric titrations in water (protonation constants)
Type: physicochemical
Details: pH 7.4; calculated from protonation constants
Numbers only.

These recorded examples may help you get a feel for the data.
c1cc2nc(c1)CNCCN(CCNCc1ccc3c(c1)CCO3)CCNC2 [Compound 8a]; 2.4
Oc1ccc(CNCCN2CCNCc3cccc(n3)CNCC2)cc1 [Compound 7a]; 2.4
c1cc2c(cc1CNCCCCNCCCNCc1ccc3c(c1)OCO3)OCO2 [Compound 1a]; 2.7
Oc1ccccc1CNCCN1CCNCc2cccc(n2)CNCC1 [Compound 6a]; 1.91
c1cc2c(cc1CNCCCNCCCCNCCCNCc1ccc3c(c1)OCO3)OCO2 [Compound 2a]; 3.4
c1cc2c(cc1CNCCN(CCNCc1ccc3c(c1)OCO3)CCNCc1ccc3c(c1)OCO3)OCO2 [Compound 3a]; 2.1

Here's the next entry for you.
Task item: Which n, average number of positive charges at pH 7.4 is reported for this compound? c1cc2nc(c1)CNCCN(CCNCc1ccc3c(c1)OCO3)CCNC2 [Compound 5a]
Reply: 2.4
